# System: RXF 393 renal
# Test protocol: NCI-60 one-dose screen, 48 h
# Condition set: 10 µM unless noted
This is part of a sample that, as a whole, favours compounds with a hit. Of some 83,000 tested, about 20% had one in any assay. Activity calls are given as the source filed them. How the source made its calls: active means growth percent below 10; inactive means the rest.
Outcomes: active, inactive

- Compound: "Cc1cc(N2CCCCC2)nc(N(CCCNc2ccnc3cc(Cl)ccc23)Cc2ccco2)n1"
  Assigned category: "inactive"
- Compound: "NC1=C(C/C(N)=N\\O)C(c2ccccc2Cl)c2c(ccc3ccccc23)O1 (centres undefined)"
  Assigned category: "inactive"
- Compound: "O=S(=O)(NCCNc1cc(-c2cn(-c3ccccc3)nc2-c2cccc(O)c2)ccn1)c1cccc(F)c1"
  Assigned category: "inactive"
- Compound: "COc1cc(NC(C)CN(CC(C)C)C(C)C)c2ncccc2c1 (centres undefined)"
  Assigned category: "inactive"
- Compound: "COc1cccc(-c2nn(-c3ccccc3)cc2-c2ccnc(NCCNS(=O)(=O)c3cccc(F)c3)c2)c1"
  Assigned category: "inactive"
- Compound: "Fc1ccc(NCc2nnc(-c3ccc(Cl)cc3)o2)cc1"
  Assigned category: "inactive"
- Compound: "Oc1ccccc1/C=N\\NC(=S)Nc1ccc(F)cc1"
  Assigned category: "inactive"
- Compound: "Nc1ccccc1NC(=O)c1ccc(CN2CCC/C(=C\\c3ccccn3)C2=O)cc1"
  Assigned category: "active"
- Compound: "CC1(C)C(=O)/C(=C\\c2ccccn2)C[C@]2(C)[C@H]3CC[C@@H]4[C@@H](C(=O)/C=C/c5ccccn5)CC[C@@]4(C)[C@]3(C)CC[C@@H]12"
  Assigned category: "active"

All figures here come from PubChem BioAssay (NCI).
